System Name: Carbonic anhydrase 1 (Homo sapiens)
Sequence (P00915 whole entry): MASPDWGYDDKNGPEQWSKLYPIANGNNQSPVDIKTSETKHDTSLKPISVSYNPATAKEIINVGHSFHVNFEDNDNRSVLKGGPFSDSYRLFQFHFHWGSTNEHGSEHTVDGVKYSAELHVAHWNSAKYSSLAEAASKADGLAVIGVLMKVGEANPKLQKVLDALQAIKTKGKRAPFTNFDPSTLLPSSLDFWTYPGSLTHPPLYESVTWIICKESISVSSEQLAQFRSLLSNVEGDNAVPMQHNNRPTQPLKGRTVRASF
Property Measured: IC50 (µM)
Use µM as the unit, but write only the number.

CC12C=CC3=C4CCC(=O)C=C4CCC3C1CCC2O (configuration not stated); 55

Please turn your attention to the following entry.
The compound CC1CCCC(O)CCCCCc2cc(O)cc(O)c2C(=O)O1 (configuration not stated) , tested on Carbonic anhydrase 1 (Homo sapiens), showed IC50 of 898

Reference for the values: BindingDB's records for doi:10.3109/14756366.2011.584535
